meta.source: patent US8741932B2

Kindly state pIC50 for each of the entries shown.
system: H460; assay: Cytotoxicity assay (propidium iodide), H460; type: cell-based; settings: Homo sapiens, NCI-H460; H460 (C1b, lung); 48 hours
pIC50: −log10 of the molar value.

Answered examples (3):
Challenge: Could you please provide reported pIC50 for CN(N=Cc1cnc2ccc(-c3cccnc3)cn12)S(=O)(=O)c1cccc2cccnc12 [Example 30] ? Thanks!
Response given: < 5.30

Challenge: Could you please provide reported pIC50 for CN(N=Cc1cnc2ccc(-c3cccnc3)cn12)S(=O)(=O)c1ccccc1 [Example 1] ? Thanks!
Response given: 5.30 to 8.00

Challenge: Could you please provide reported pIC50 for COc1ccc(F)cc1S(=O)(=O)N(C)/N=C/c1cnc2ccc(-c3cccnc3F)cn12 [Example 88] ? Thanks!
Response given: 5.30 to 8.00

Others:
Challenge: Could you please provide reported pIC50 for Cc1ccc(F)cc1S(=O)(=O)N(C)N=Cc1cnc2ccc(-c3cccnc3)cn12 [Example 21] ? Thanks!
Response given: 5.30 to 8.00
